Tested on: AsPC-1 cells (KRAS G12D)
Measurement notes: Cell-based pERK HTRF assay in AsPC-1 cells (Biological Example 5)
Condition summary: Homo sapiens, ASPC1, AsPC-1 (KRAS G12D) cells
From the text: Biological Example 5: Cell-based PERK HTRF assay in AsPC-1, SW1900, HPAC, Capan-2, RKN, H358, HCT116, KP-2, H1573, A549, MKN1, and HT1080 cells The inhibition of ERK phosphorylation, as measured using the HTRF Advanced Phospho-ERK 1/2 (Thr202/Tyr204) Detection Assay kit (Perkin Elmer), was used to determine the effectiveness of test compounds in disrupting KRAS-driven protein/effector signaling in cells. […]
Hi there, I'd appreciate the recorded IC50 for every entry that follows.

As a guide, the following entries are already answered.
* Cc1cc2n(n1)CCN(c1nc(OCC34CCCN3CC(F)C4)nc3c(F)c(-c4ccc(F)c5sc(N)c(C#N)c45)c(C(F)(F)F)cc13)C2 (centres unmarked) | ≤ 100 nM
* CCN(c1nc(OC[C@@]23CCCN2C[C@H](F)C3)nc2c(F)c(-c3ccc(F)c4sc(N)c(C#N)c34)c(C(F)(F)F)cc12)[C@H]1C[C@H](C)N(C(=O)OC)C1 (atropisomer, axis not shown) | ≤ 100 nM
* CCN(c1nc(OC[C@@]23CCCN2C[C@H](F)C3)nc2c(F)c(-c3ccc(F)c4sc(N)c(C#N)c34)c(C(F)(F)F)cc12)[C@H]1CCN(C(C)=O)C1 | 100 to 1000 nM
* CCN(c1nc(OC[C@@]23CCCN2C[C@H](F)C3)nc2c(F)c(-c3ccc(F)c4sc(N)c(C#N)c34)c(C(F)(F)F)cc12)[C@H]1CCN(C(=O)C2CC2)[C@@H]1C (atropisomer, axis not shown) | ≤ 100 nM

Continue with the compound presented below.
Requested field: IC50. Item: `CCN(c1nc(OC[C@@]23CCCN2C[C@H](F)C3)nc2c(F)c(-c3ccc(F)c4sc(N)c(C#N)c34)c(C(F)(F)F)cc12)[C@@H]1CCN(C(C)=O)C1`
100 to 1000 nM

----------
Assayed target: Avi-KRAS G12R (1-169) GppNHp/RAF1 RBD-3xFLAG (52-151) (Homo sapiens, UniProt P01116, G12R)
Construct: Avi-KRAS G12R (1-169)
Sequence (P01116 1-169 isoform P01116-2 G12R): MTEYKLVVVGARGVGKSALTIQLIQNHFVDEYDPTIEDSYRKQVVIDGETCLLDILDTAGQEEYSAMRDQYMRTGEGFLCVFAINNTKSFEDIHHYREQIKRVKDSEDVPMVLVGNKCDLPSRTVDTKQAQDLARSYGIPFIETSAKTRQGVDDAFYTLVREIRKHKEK
Measurement notes: Raf1-KRAS G12R-GppNHP disruption HTRF assay (Biological Example 1)
Assay type: binding
Condition summary: KRAS G12R, GppNHp-loaded; class symbols
Description: A protein:protein interaction (PPI) Homogeneous Time Resolved Fluorescence (HTRF) assay was used to determine the effectiveness of compounds of the present disclosure in disrupting KRAS protein and effector RAF1 binding. The assay buffer included: 50 mM Tris pH 7.5, 100 mM NaCl, 5 mM MgCl2, 0.1% BSA, 0.01% Tween, and 10% DMSO. The bead buffer included: 50 mM Tris pH 7.5, and 0.01% Tween 20. […] Data was reported as percentage of activity, with DMSO as 100%. Data was plotted and analyzed using Prism 8.
Give IC50 for every item shown.

Observe how each entry below is paired with its result.
* CCN(c1nc(OC[C@@]23CCCN2C[C@H](F)C3)nc2c(F)c(-c3ccc(F)c4sc(N)c(C#N)c34)c(C(F)(F)F)cc12)[C@H]1CCN(C(=O)C=C(C)C)C1 (atropisomer, axis not shown) [Compound 675] | < 100 nM
* COC(=O)N1CC[C@H](N(C)c2nc(OC[C@@]34CCCN3C[C@H](F)C4)nc3c(F)c(-c4ccc(F)c5sc(N)c(C#N)c45)c(C(F)(F)F)cc23)C1 (atropisomer, axis not shown) [Compound 756] | < 100 nM
* CCN(c1nc(OC[C@@]23CCCN2C[C@H](F)C3)nc2c(F)c(-c3ccc(F)c4sc(N)c(C#N)c34)c(C(F)(F)F)cc12)[C@H]1C[C@@H](COC)N(C(=O)C2CC2)C1 (atropisomer, axis not shown) [Compound 650] | 100 to 1000 nM
* CCN(c1nc(OC[C@@]23CCCN2C[C@H](F)C3)nc2c(F)c(-c3ccc(F)c4sc(N)c(C#N)c34)c(C(F)(F)F)cc12)[C@H]1CCN(C(=O)O[C@H]2CCOC2)[C@@H]1C (atropisomer, axis not shown) [Compound 810] | < 100 nM
* CN(C)C(=O)c1nn2c(c1C1CC1)CN(c1nc(OCC34CCCN3CC(F)C4)nc3c(F)c(-c4ccc(F)c5sc(N)c(C#N)c45)c(C(F)(F)F)cc13)CC2 (stereo not drawn) [Compound 738] | 100 to 1000 nM

For the 7 molecules below, give their IC50 values.
1. CC(=O)N1CC[C@H]2[C@@H]1CN2c1nc(OC[C@@]23CCCN2C[C@H](F)C3)nc2c(F)c(-c3ccc(F)c4sc(N)c(C#N)c34)c(C(F)(F)F)cc12 (atropisomer, axis not shown) [Compound 641]
2. [2H]C1([2H])OC(=O)N2C[C@@H](N(CC)c3nc(OC[C@@]45CCCN4C[C@H](F)C5)nc4c(F)c(-c5ccc(F)c6sc(N)c(C#N)c56)c(C(F)(F)F)cc34)C[C@H]21 (atropisomer, axis not shown) [Compound 760]
3. CCN(c1nc(OC[C@@]23CCCN2C[C@H](F)C3)nc2c(F)c(-c3ccc(F)c4sc(N)c(C#N)c34)c(C(F)(F)F)cc12)[C@H]1CCN(C(=O)c2cnn(C)c2)C1 (atropisomer, axis not shown) [Compound 748]
4. CCN(c1nc(OC[C@@]23CCCN2C[C@H](F)C3)nc2c(F)c(-c3ccc(F)c4sc(N)c(C#N)c34)c(C(F)(F)F)cc12)[C@H]1CCN(C(=O)[C@H]2CC23CC3)C1 (atropisomer, axis not shown) [Compound 772]
5. CCN(c1nc(OC[C@@]23CCCN2C[C@H](F)C3)nc2c(F)c(-c3ccc(F)c4sc(N)c(C#N)c34)c(C(F)(F)F)cc12)[C@H]1C[C@@H](C)N(C(=O)N2CC(OC)C2)C1 (atropisomer, axis not shown) [Compound 734]
6. N#Cc1c(N)sc2c(F)ccc(-c3c(C(F)(F)F)cc4c(N(Cc5cccnc5N)C5CC5)nc(OC[C@@]56CCCN5C[C@H](F)C6)nc4c3F)c12 (atropisomer, axis not shown) [Compound 602]
7. CCN(c1nc(OC[C@@]23CCCN2C[C@H](F)C3)nc2c(F)c(-c3ccc(F)c4sc(N)c(C#N)c34)c(C(F)(F)F)cc12)[C@H]1CCN(C(=O)OC2CC(F)C2)C1 (stereo partly drawn) [Compound 776]

1. 1000 to 10000 nM
2. < 100 nM
3. < 100 nM
4. < 100 nM
5. 100 to 1000 nM
6. 1000 to 10000 nM
7. < 100 nM

Could you tell me IC50 for each of these molecules? They are listed below.
1. CCN(c1nc(OC[C@@]23CCCN2C[C@H](F)C3)nc2c(F)c(-c3ccc(F)c4sc(N)c(C#N)c34)c(C(F)(F)F)cc12)[C@H]1C[C@H]2CCN(C)C(=O)N2C1 (atropisomer, axis not shown) [Compound 666]
2. CCN(c1nc(OC[C@@]23CCCN2C[C@H](F)C3)nc2c(F)c(-c3ccc(F)c4sc(N)c(C#N)c34)c(C(F)(F)F)cc12)[C@H]1CCN(C(=O)N2CC(F)C2)C1 (atropisomer, axis not shown) [Compound 606]
3. CCN(c1nc(OC[C@@]23CCCN2C[C@H](F)C3)nc2c(F)c(-c3ccc(F)c4sc(N)c(C#N)c34)c(C(F)(F)F)cc12)[C@H]1CCN(C(=O)OCCF)C1 (atropisomer, axis not shown) [Compound 687]
4. CCN(c1nc(OC[C@@]23CCCN2C[C@H](F)C3)nc2c(F)c(-c3ccc(F)c4sc(N)c(C#N)c34)c(C(F)(F)F)cc12)[C@H]1CCN(C(=O)[C@@H]2C[C@H]2C)C1 (atropisomer, axis not shown) [Compound 690]
5. CCN(c1nc(OC[C@]23C[C@@H](F)CN2CC2(CC2)C3)nc2c(F)c(-c3ccc(F)c4sc(N)c(C#N)c34)c(C(F)(F)F)cc12)[C@H]1CCN(C(=O)C(C)C)C1 [Compound 566]
6. CCN(c1nc(OC[C@@]23CCCN2C[C@H](F)C3)nc2c(F)c(-c3ccc(F)c4sc(N)c(C#N)c34)c(C(F)(F)F)cc12)[C@H]1CCN(C(=O)OC2CC(OC)C2)C1 (stereo partly drawn) [Compound 791]

["< 100 nM", "< 100 nM", "< 100 nM", "< 100 nM", "100 to 1000 nM", "< 100 nM"]

----------
So I've got a bunch of molecules here, and I need their IC50 values.
Assayed target: Avi-KRAS G12D (2-169) GTP/RAF1 RBD-3xFLAG (51-131) (Homo sapiens, UniProt P01116, G12D)
Construct: Avi-KRAS G12D (2-169)
Sequence (P01116 2-169 isoform P01116-2 G12D): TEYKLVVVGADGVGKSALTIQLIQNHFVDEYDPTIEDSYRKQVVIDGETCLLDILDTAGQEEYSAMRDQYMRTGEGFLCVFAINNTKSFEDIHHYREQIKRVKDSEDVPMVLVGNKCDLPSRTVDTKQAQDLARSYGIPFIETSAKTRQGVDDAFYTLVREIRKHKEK
Measurement notes: Raf1-KRAS G12D-GTP disruption HTRF assay (Biological Example 3)
Type: binding
Condition summary: KRAS G12D, GTP-loaded

Consider the following illustrative entries.
* CCN(c1nc(OC[C@@]23CCCN2C[C@H](F)C3)nc2c(F)c(-c3ccc(F)c4sc(N)c(C#N)c34)c(C(F)(F)F)cc12)[C@H]1C[C@H](C)N(C(=O)OC2CC(OC)C2)C1 (some centres unmarked) [Compound 907] | 100 to 1000 nM
* CCN(c1nc(OC[C@@]23CCCN2C[C@H](F)C3)nc2c(F)c(-c3ccc(F)c4sc(N)c(C#N)c34)c(C(F)(F)F)cc12)C1CCN(C(=O)C2CC2)C1 (some centres unmarked) [Compound 903] | ≤ 100 nM
* CCN(c1nc(OCC23CCCN2CC(F)C3)nc2c(F)c(-c3ccc(F)c4sc(N)c(C#N)c34)c(C(F)(F)F)cc12)C1CCN(C(=O)c2cnc(C#N)s2)C1 (centres unmarked) [Compound 960] | 100 to 1000 nM

I need IC50 for every entry listed below, if you could help.
1. CCN(c1nc(OC[C@@]23CCCN2C[C@H](F)C3)nc2c(F)c(-c3ccc(F)c4sc(N)c(C#N)c34)c(C(F)(F)F)cc12)[C@H]1C[C@H]2[C@@H](C)OC(=O)N2C1 (atropisomer, axis not shown) [Compound 823]
2. CCN(c1nc(OC[C@@]23CCCN2C[C@H](F)C3)nc2c(F)c(-c3ccc(F)c4sc(N)c(C#N)c34)c(C(F)(F)F)cc12)[C@H]1CC(=O)N(CC(F)F)C1 (atropisomer, axis not shown) [Compound 613]

100 to 1000 nM
≤ 100 nM
